# tgt: Cytochrome P450 2D6 (Homo sapiens)
# assay-procedure: Cytochrome P450 family 2 subfamily D member 6 (CYP2D6) small molecule antagonists: luciferase biochemical (cell-free) qHTS assay (AID 1645840); note: nearly all actives have a fitted effect of over 55% in size
# conditions-used: P450-Glo CYP2D6 enzyme, luciferin luminescence, 1 h; series mostly up to 57.4 µM
Results filed as inconclusive are left out. Calls of active or inactive are those of the source. Calls come from the whole dose curve; as a rule, active = well fitted inhibition curve with a large enough effect in the repeat runs; inconclusive = weak or mixed curves; inactive = flat fitted curve, though single readings scatter.
Outcome codes: active, inactive

INSERT INTO assay_data (compound, tgt, label) VALUES
  ('Cc1c(Cl)cccc1S(=O)(=O)Nc1nc(NCCc2ccccc2)nc2c1CN(Cc1ccccc1)CC2', 'Cytochrome P450 2D6 (Homo sapiens)', 'active'),
  ('CCn1c(=O)c(-c2ccc(-c3cncs3)cc2Cl)cc2cnc(Nc3ccc(N4CCN(C)CC4)cc3)nc21', 'Cytochrome P450 2D6 (Homo sapiens)', 'inactive'),
  ('CCCc1cc(C)[nH]c(=O)c1CNC(=O)c1cc(-c2ccnc(N3CCN(C)CC3)c2)cc2c1cnn2C(C)C', 'Cytochrome P450 2D6 (Homo sapiens)', 'active'),
  ('O=C(NCCN1CCC(n2c(=O)[nH]c3ccccc32)CC1)c1cc2cc(F)ccc2[nH]1', 'Cytochrome P450 2D6 (Homo sapiens)', 'active'),
  ('CCC(=O)O', 'Cytochrome P450 2D6 (Homo sapiens)', 'inactive'),
  ('C[C@@H](NC(=O)C(=O)c1c[nH]c2ccc([N+](=O)[O-])cc12)c1ccccc1', 'Cytochrome P450 2D6 (Homo sapiens)', 'inactive'),
  ('CCCn1ncc(CN2CCCC(C(=O)c3cccc(OC(C)C)c3)C2)c1C (centres undefined)', 'Cytochrome P450 2D6 (Homo sapiens)', 'active'),
  ('O=S(=O)(O)Oc1ccc(C(c2ccc(OS(=O)(=O)O)cc2)c2ccccn2)cc1', 'Cytochrome P450 2D6 (Homo sapiens)', 'inactive'),
  ('CCCCNc1ncc(C(=O)NCc2ccc(-n3ccnc3)cc2)c(NC2CCC(O)CC2)n1 (centres undefined)', 'Cytochrome P450 2D6 (Homo sapiens)', 'active'),
  ('O=c1nc(-c2ccccn2)sc2ccccc12', 'Cytochrome P450 2D6 (Homo sapiens)', 'inactive'),
  ('CC(=O)N1CCN(CCOc2ccc(C3CCN(C4=Nn5c(nnc5C(F)(F)F)CC4)CC3)cc2)CC1', 'Cytochrome P450 2D6 (Homo sapiens)', 'inactive'),
  ('Nc1nccc(-c2c(-c3ccc(F)cc3)ncn2C2CCCCC2)n1', 'Cytochrome P450 2D6 (Homo sapiens)', 'active'),
  ('Cc1cc2occ(CN(C)CCN(C)Cc3cn(-c4cccc(C(F)(F)F)c4)c4ccccc34)c(=O)c2cc1C', 'Cytochrome P450 2D6 (Homo sapiens)', 'active'),
  ('O=C(CN1C2=NCCN2c2ccccc21)c1ccc(-c2ccccc2)cc1', 'Cytochrome P450 2D6 (Homo sapiens)', 'active'),
  ('CN(C)C(=O)NC1(c2ccccc2)CCN(CCC[C@]2(c3ccc(Cl)c(Cl)c3)CCCN(C(=O)c3ccccc3)C2)CC1', 'Cytochrome P450 2D6 (Homo sapiens)', 'active'),
  ('CC1=C(c2ccc(NC(=O)c3c(F)cccc3F)cc2)CN(c2nccs2)CC1', 'Cytochrome P450 2D6 (Homo sapiens)', 'inactive'),
  ('Cc1cc(C(=O)Cn2cc(C#N)ccc2=O)c(C)n1Cc1ccccc1', 'Cytochrome P450 2D6 (Homo sapiens)', 'inactive'),
  ('CCCCCCCCCCCCCCCC(=O)OC/C=C(C)/C=C/C=C(C)/C=C/C1=C(C)CCCC1(C)C', 'Cytochrome P450 2D6 (Homo sapiens)', 'inactive'),
  ('O=C(Nc1cc(C(F)(F)F)ccc1N1CCCCC1)c1ccncc1', 'Cytochrome P450 2D6 (Homo sapiens)', 'active'),
  ('NC(=O)c1cnc(N[C@@H]2CCCC[C@H]2N)nc1Nc1cccc(-n2nccn2)c1', 'Cytochrome P450 2D6 (Homo sapiens)', 'active'),
  ('N#Cc1ccc(COc2ccc(-c3cccc4nc(NC(=O)C5CC5)nn34)cc2)cn1', 'Cytochrome P450 2D6 (Homo sapiens)', 'inactive'),
  ('COc1ccc(NC(=O)c2ccc(-c3ccc(-c4nnc(C)o4)cc3C)cc2)cc1N1CCN(C)CC1', 'Cytochrome P450 2D6 (Homo sapiens)', 'active'),
  ('CC(C)Nc1nc(Nc2ccccc2)nc(-c2ccccc2)n1', 'Cytochrome P450 2D6 (Homo sapiens)', 'inactive'),
  ('O=C(Nc1cccnc1)c1cc(-c2ccnc(F)c2)ccc1OCc1ccccc1', 'Cytochrome P450 2D6 (Homo sapiens)', 'inactive'),
  ('COc1cc2nc(C3CC3)nc(N3CCN(c4ccccc4OC)CC3)c2cc1OC', 'Cytochrome P450 2D6 (Homo sapiens)', 'active'),
  ('c1cc(NCCc2c[nH]c3ccccc23)cc(Nc2ccncc2)c1', 'Cytochrome P450 2D6 (Homo sapiens)', 'active'),
  ('N#CC(CCCN1CCN(/N=C/c2cccnc2)CC1)(c1ccccc1)c1ccccc1', 'Cytochrome P450 2D6 (Homo sapiens)', 'active'),
  ('COCC(=O)NC/C=C/c1ccc2ncnc(Nc3ccc(Oc4ccc(C)nc4)c(C)c3)c2c1', 'Cytochrome P450 2D6 (Homo sapiens)', 'active'),
  ('O=C(N[C@H](Cc1cscn1)C(=O)N[C@@H](CC1CCCCC1)[C@@H](O)[C@@H](O)C1CC1)c1nc2ccccc2[nH]1', 'Cytochrome P450 2D6 (Homo sapiens)', 'active'),
  ('CCn1c2ccccc2c2cc(Nc3ccnc(NCCCN4CCOCC4)n3)ccc21', 'Cytochrome P450 2D6 (Homo sapiens)', 'inactive'),
  ('CC(=O)NCc1cccc(OC[C@@H](O)CNCCc2ccc(NS(=O)(=O)c3ccccc3)cc2)c1', 'Cytochrome P450 2D6 (Homo sapiens)', 'active'),
  ('COc1cc(-c2nc(N[C@H](CO)Cc3ccccc3)ccc2C(=O)NCCOc2ccccc2)cc(OC)c1OC', 'Cytochrome P450 2D6 (Homo sapiens)', 'active'),
  ('CCOC(=O)C1(CCOc2ccccc2)CCN(Cc2ccc(O)c(Cl)c2)CC1', 'Cytochrome P450 2D6 (Homo sapiens)', 'active'),
  ('O=S(=O)(c1ccc(Cl)cc1)N1CCN(c2ccnc3cc(Cl)ccc23)CC1', 'Cytochrome P450 2D6 (Homo sapiens)', 'active'),
  ('COc1c(C)cnc(Cn2cc(C#CCC(C)(C)O)c3c(Cl)nc(N)nc32)c1C', 'Cytochrome P450 2D6 (Homo sapiens)', 'inactive'),
  ('Fc1ccc2c(CCNCc3cccc(OCC(F)(F)C(F)F)c3)c[nH]c2c1', 'Cytochrome P450 2D6 (Homo sapiens)', 'active'),
  ('CCOC(=O)c1cnn(-c2ccccc2)c1NC(=O)c1cc2nc(-c3ccco3)cc(C(F)(F)Cl)n2n1', 'Cytochrome P450 2D6 (Homo sapiens)', 'inactive'),
  ('Cc1ccc(NC(=O)N2CCN(c3nc(N)nc4sc(-c5cccnc5)nc34)CC2)cc1', 'Cytochrome P450 2D6 (Homo sapiens)', 'active'),
  ('Cc1cc(N2CCOCC2)ccc1Nc1nc(NC2CCCCC2)c2[nH]cnc2n1', 'Cytochrome P450 2D6 (Homo sapiens)', 'inactive');
